I'd be grateful if you could share measured growth inhibition for these entries.
# Assay info: NCI Yeast Anticancer Drug Screen. Data for the mlh1 rad18 strain (AID 175)
# Setup conditions: S. cerevisiae mlh1 rad18 strain growth inhibition; at 50.0 µM; active compounds read high
Compounds without any hit were thinned out: in the full panel of roughly 79,000, 15% have a hit.
One number for each entry, in %.

Answered cases to consult:
COC1OC2COC(C)(C)OC2C1OS(=O)(=O)c1ccc(C)cc1 (centres undefined) ... 29.6
COc1cccc(/C(C=O)=C(\Cl)c2ccc(OC)c(OC)c2)c1 ... -8.3
CCCCCC(=O)NC(=O)Nc1ccccc1OC ... -1.55
CCNC(=O)N(C)Cc1ccc(Cl)cc1 ... -5.1

Consider the following items and state reported growth inhibition for each.
1. Cc1ccc(Cc2nn(C)c(=O)n2-n2cccc2)cc1
2. COC(=O)c1ccccc1NC(=O)C1CCCCC1=O (centres undefined)
3. CCN(CC)c1ccc(/C=N\NC(=O)CCCC(=O)N/N=C/c2ccc(N(CC)CC)cc2)cc1
4. CCOC(=O)C(C#N)C1(C(C#N)C(=O)OCC)C(=O)Nc2ccccc21 (centres undefined)
5. Cc1cc(O)cc(O)c1C(=O)O[C@]1(C)C(=O)C=C2C=C(/C=C/C(=O)O)OC=C2C1=O
6. COC(=O)C(=O)C(C(=O)C(=O)Nc1cc([N+](=O)[O-])ccc1[N+](=O)[O-])c1nc2ccc(C(=O)c3ccccc3)cc2[nH]c1=O (centres undefined)
7. C[N+]1(CC(O)C[N+]2(C)CCCCCC2)CCCCCC1
8. COC(=O)C(C)Oc1ccccc1 (centres undefined)

-7.45
0.6
-30.4
32.3
-3.9
18.9
32.8
-18.5

Consider the following items and state reported growth inhibition for each.
1. CNc1ccc(C(=O)NC(CCC(=O)O)C(=O)O)cc1I (centres undefined)
2. CCCC1CCCCC1O (centres undefined)
3. NC1=NC(=O)C2(CCCCC2)S1
4. CCn1c(O)c(C=Nc2ccccc2)s/c1=N/Nc1nc(C)c(C(C)=O)s1
5. COC(=O)CCC(=O)Nc1ccc(Cl)cc1C
6. Brc1ccc(CN(Cc2ccccc2)Cc2ccccc2)cc1
7. O=C(O)Cc1ccc(-c2ccccc2)[nH]1
8. CCCCCCCCCCCCCCCC[N+](C)(C)CCNC(C)=O

1: 10.3; 2: -6.95; 3: -24.6; 4: 21.2; 5: -21.2; 6: 4.75; 7: -12; 8: 99.5

Consider the following items and state reported growth inhibition for each.
1. CC1CN(Cc2ccccc2)C(=O)C1=O (centres undefined)
2. CCNC(=S)Nc1ccc(OCC)cc1
3. C/C(=N/OC(=O)c1cccc2c(=O)c3ccccc3[nH]c12)[C@H]1CC[C@H]2[C@@H]3CCC4=C/C(=N/OC(=O)c5cccc6c(=O)c7ccccc7[nH]c56)CC[C@]4(C)[C@H]3CC[C@]12C
4. C/C=C/Cc1ccccc1O

[-11.9, 16.4, 36.5, -1.1]

----------
I'd be grateful if you could share measured growth inhibition for these entries.
# Assay info: NCI Yeast Anticancer Drug Screen. Data for the mlh1 rad18 strain (AID 175)
# Setup conditions: S. cerevisiae mlh1 rad18 strain growth inhibition; at 50.0 µM; active compounds read high
The panel holds about 79,000 compounds, 15% with a hit somewhere; the sample as a whole holds those more often.
One number for each entry, in %.

Answered cases to consult:
CSc1nc(N)c(NS(=O)(=O)c2ccccc2)c(=O)[nH]1 ... 6.05
CN(C)c1nc(OC2C(C(O)CO)OC3OC(C)(C)OC32)nc(N(C)C)n1 (centres undefined) ... -0.65
NC(=O)c1ccccc1O ... 15.2
C(#CC[P+](c1ccccc1)(c1ccccc1)c1ccccc1)C[P+](c1ccccc1)(c1ccccc1)c1ccccc1 ... -10.4
CN1C(=O)CC(c2ccc(Cl)cc2)C1=O (centres undefined) ... 2.65
O=C1CCCC/C(=C/c2ccccc2)N1 ... 7.85
CN(C)CCNC(=O)c1ccc(Cl)c2cc3ccccc3nc12 ... 85.8
CC(=O)OCCc1nnnn1C ... 10.4
Cn1c(C(F)(F)F)nc2nc(Cl)c(Cl)nc21 ... 46
CCN1CCCC(Nc2nc(Nc3cc(Cl)cc(Cl)c3)nc3ccc(Cl)cc23)C1 (centres undefined) ... 95.8

Consider the following items and state reported growth inhibition for each.
1. Cc1ccc(S(=O)(=O)N/N=C/c2cc([N+](=O)[O-])cc(I)c2O)cc1
2. O=c1ncccn1C1OC(CO)C(O)C1F (centres undefined)

1: 4.2; 2: -1.7

Consider the following items and state reported growth inhibition for each.
1. CC(C)(C)c1ccc(OC(=O)NCCCCCCNC(=O)Oc2ccc(C(C)(C)C)cc2)cc1
2. CSCCC(NC(=O)NS(=O)(=O)c1ccc(C)cc1)C(=O)O (centres undefined)
3. CC1CC(c2ccccc2)=Nc2ccccc2S1 (centres undefined)
4. COC(=O)/C(=N/O)C(C(=O)OC)C(=O)C(=O)Nc1c(Cl)cc(C)cc1S(=O)(=O)O (centres undefined)
5. Nc1ccc(C(=O)Nc2ccc(C(=O)Nc3ccc4c(O)cc(S(=O)(=O)O)cc4c3)cc2)cc1

-8.5
9.55
-9.4
8.15
12.8

Consider the following items and state reported growth inhibition for each.
1. COc1ccc2c(c1)[n+]([O-])c(/C(C)=N/NC(N)=S)c(C)[n+]2[O-]
2. CCCCOC(=O)C(C)O (centres undefined)
3. C=CCCCCCCCCC(=O)NCCN1CCOCC1
4. O=C(/C=C/c1ccccc1)CC1OC(=O)c2ccccc21 (centres undefined)

1. 47.1
2. 24.9
3. 98.2
4. -20.9

Consider the following items and state reported growth inhibition for each.
1. NC(=O)NCCCC1NC(=S)N(c2ccccc2)C1=O (centres undefined)
2. Nc1ccc(CC(=O)O)cc1S(=O)(=O)O
3. COC(=O)C1CC/C(=N\Nc2ccc([N+](=O)[O-])cc2[N+](=O)[O-])CC1C(=O)OC (centres undefined)

1: 34; 2: 26.6; 3: 19.6

----------
# Assay info: NCI Yeast Anticancer Drug Screen. Data for the bub3 strain (AID 167)
# Setup conditions: S. cerevisiae bub3 mutant strain, at 50.0 µM, active compounds read high
Compounds without any hit were thinned out: in the full panel of roughly 79,000, 15% have a hit.
Endpoint label: growth inhibition (%)
One number for each entry, in %.

CC1CC(C)(C)NC(C2CCC=CO2)O1 (stereo not given) ... -18.6
OC1CCCC2CCCC12 (stereo not given) ... 16.4
C[C@@H](Oc1ccc(Oc2cnc3ccc(Cl)cc3n2)cc1)C(=O)O ... 15.2
C/C=C(/C)C(=O)O[C@@H]1c2c(C)coc2C(=O)[C@@]2(OC(C)=O)CCC[C@@](C)(O)[C@@]12C ... 39.4
[Cl][Ge]([Cl])([c]1ccccc1)[c]1ccccc1 ... 43

Consider the following items and state reported growth inhibition for each.
1. COC(=O)C1(C)CCCC2(C)C3CC(O)C(C(C)C)=CC3(O)CCC12 (stereo not given)
2. OC(c1ccccc1)(c1ccccc1)c1ccccc1C(O)(c1ccccc1)c1ccccc1
3. O=[N+]([O-])C(=C(N1CCOCC1)N1CCOCC1)/C(Cl)=C(\Cl)Br
4. Clc1ccccc1SSc1ccccc1Cl
5. Cc1ccc(CCCCCOc2ccc(C3=NCCO3)cc2)s1
6. CCOC(=O)C(C)(Br)C(Br)c1ccc([N+](=O)[O-])cc1 (stereo not given)

-1
-4.65
4.5
28.1
-3
80.9

Consider the following items and state reported growth inhibition for each.
1. CN(C)NC(=O)CC#N
2. CC(C)C(=O)OC1(Cc2cccc[n+]2C)CCCCC1
3. CC(=O)c1cccc(NC(=O)Nc2ccc(Nc3ccccc3)cc2)c1
4. CN(CC(=O)c1ccc(Cl)cc1)Cc1cccc2ccccc12

1: -6; 2: 12.9; 3: 21.8; 4: 22.9

Consider the following items and state reported growth inhibition for each.
1. CSc1ccc(NC(=O)Nc2cc(C)ccn2)cc1
2. O=[N+]([O-])c1cnc(N(CCO)CCO)s1
3. CSc1nc(NCc2ccc(Cl)cc2)c2[nH]c(C)nc2n1
4. CCCc1cc(=O)oc2c3c(c4c(c12)OC(C)(C)CC4)O[C@H](C)C(C)C3O (stereo not given in full)

-61
-11.5
20.1
47.6

----------
# Assay info: NCI Yeast Anticancer Drug Screen. Data for the cln2 rad14 strain (AID 165);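 note: 0% = growth equal to vehicle treated cultures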
# Setup conditions: S. cerevisiae cln2 rad14 strain, at 50.0 µM, active compounds read high
About 79,000 compounds went through this panel and 15% of them were active in at least one assay; those are over-represented in the sample as a whole.
Would you mind labelling by growth inhibition? At or over 20% is satisfied, under is not satisfied.

O=c1c2ccccc2n2nnc3ccc(NCCNCCO)c1c32 ... satisfied
CC(C)CN1CC(=O)N2Cc3ccccc3CN2C(=O)C1 ... not satisfied
OCc1c(CO)c(C(F)(F)F)n2c1CCC2 ... not satisfied
Brc1ccccc1/C=N\N=C\c1ccccc1Br ... not satisfied
COc1cc2nncc(Sc3cnnc4ccccc34)c2cc1OC ... not satisfied

Consider the record given below.
Hi, just wondering whether COc1ccc2nc3cc(Cl)ccc3c(Nc3ccc(C(O)CCN(C)C)cc3)c2c1 (stereo unspecified) shows growth inhibition of 20% or higher.
satisfied
